tested on: 922993-354-T-J3-PDC complex spheroids, viability; assay: Anticancer human tumor 922993-354-T-J3-PDC patient-derived endometrial carcinoma cell line growth inhibition [GQUAD]; conditions: curve of first compound; second compound 1 µM;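 also: spheroids exposed to compounds for seven days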
Listed here: items and their measured IC50.

# count of solved cases: 3
molecule="Cn1ncnc1[C@H]1c2n[nH]c(=O)c3cc(F)cc(c23)N[C@@H]1c1ccc(F)cc1 + Cc1[nH]c2ccc(F)cc2c1-c1nc2c3cccnc3c3ncccc3c2[nH]1" study_system="922993-354-T-J3-PDC complex spheroids, viability" observed_value="> 0.316 µM"
molecule="CC1COCCN1c1cc(-c2ccnn2C)c2ccnc(-c3ccn[nH]3)c2n1 (stereo unspecified) + Cc1cnc(CNC(=O)c2c(=O)c3ccc(N4CCCN(C)CC4)nc3n3c2sc2ccccc23)cn1" study_system="922993-354-T-J3-PDC complex spheroids, viability" observed_value="< 0.0316 µM"
molecule="CCCS(=O)(=O)Nc1ccc(F)c(C(=O)c2c[nH]c3ncc(-c4ccc(Cl)cc4)cc23)c1F + Cc1cnc(CNC(=O)c2c(=O)c3ccc(N4CCCN(C)CC4)nc3n3c2sc2ccccc23)cn1" study_system="922993-354-T-J3-PDC complex spheroids, viability" observed_value="0.0642 µM"

Give a short answer stating reported IC50 for CC1COCCN1c1cc(C2(S(C)(=N)=O)CC2)nc(-c2ccnc3[nH]ccc23)n1 (stereo unspecified) + CN(C)c1ccc(Nc2c3ccc(NC(=O)CCN4CCCC4)cc3nc3cc(NC(=O)CCN4CCCC4)ccc23)cc1 .
> 10 µM

Give a short answer stating reported IC50 for Cn1ncnc1[C@H]1c2n[nH]c(=O)c3cc(F)cc(c23)N[C@@H]1c1ccc(F)cc1 + CN(C)c1ccc(Nc2c3ccc(NC(=O)CCN4CCCC4)cc3nc3cc(NC(=O)CCN4CCCC4)ccc23)cc1 .
> 0.316 µM

Give a short answer stating reported IC50 for O=c1[nH]cc(F)c(=O)[nH]1 + Cc1cnc(CNC(=O)c2c(=O)c3ccc(N4CCCN(C)CC4)nc3n3c2sc2ccccc23)cn1 .
< 0.0316 µM

# credit: PubChem BioAssay AID2060489
